Reference source: ChEMBL document CHEMBL5500367

Assay: Cytotoxicity against human PBMC cells assessed as decrease in cell viability at 2.5 to 10 uM incubated for 48 hrs by MTT assay
Type: toxicity, cell-based
Conditions: dose 2.5-10 µM
PROPERTY_LABEL: Activity

Recorded results for 7 compounds are shown here.
# CHEMICAL_STRING, Activity
measured = [
    ("Cc1c(C(=O)Oc2ccc(CN3C[C@H](O)C[C@H]3C(=O)O)c(OCc3cccc(C#N)c3)c2)cccc1-c1ccccc1", "Non-Toxic"),
    ("Cc1c(COc2cc(OCc3cccc(C#N)c3)c(CN3C[C@H](O)C[C@@H]3C(=O)O)cc2Cl)cccc1-c1ccc2c(c1)OCCO2", "Non-Toxic"),
    ("COc1cc(OCc2cccc(-c3ccccc3)c2C)cc(OC)c1CN1CCCC[C@H]1C(=O)O", "Non-Toxic"),
    ("Cc1c(C(=O)Oc2ccc(CNC(CO)(CO)CO)c(Br)c2)cccc1-c1ccccc1", "Non-Toxic"),
    ("COc1cc(OC(=O)c2cccc(-c3ccccc3)c2C)ccc1CN[C@@H](CO)C(=O)O", "Non-Toxic"),
    ("Cc1c(C(=O)Oc2ccc(CN[C@@H](CO)C(=O)O)cc2)cccc1-c1ccccc1", "Non-Toxic"),
    ("Cc1c(C(=O)Oc2ccc(CNCCO)c(OCc3cccc(C#N)c3)c2)cccc1-c1ccccc1", "Non-Toxic"),
]

Then there is this compound:
**Query** Please give the measured Activity for this compound: `Cc1cc(OC(=O)c2cccc(-c3ccccc3)c2C)ccc1CN[C@@H](CO)C(=O)O`
**Result** Non-Toxic

###

Biological target: Programmed cell death protein 1/Programmed cell death 1 ligand 1 (Homo sapiens, UniProt Q9NZQ7)
Sequence (Q15116 whole entry): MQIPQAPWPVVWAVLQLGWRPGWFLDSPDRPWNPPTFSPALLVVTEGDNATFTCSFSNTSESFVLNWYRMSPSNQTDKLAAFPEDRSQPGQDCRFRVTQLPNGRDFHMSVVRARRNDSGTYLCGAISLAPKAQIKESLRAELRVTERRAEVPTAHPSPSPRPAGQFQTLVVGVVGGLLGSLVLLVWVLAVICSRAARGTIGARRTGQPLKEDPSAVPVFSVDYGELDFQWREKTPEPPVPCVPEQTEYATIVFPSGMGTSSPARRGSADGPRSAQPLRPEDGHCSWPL
Sequence (Q9NZQ7 whole entry): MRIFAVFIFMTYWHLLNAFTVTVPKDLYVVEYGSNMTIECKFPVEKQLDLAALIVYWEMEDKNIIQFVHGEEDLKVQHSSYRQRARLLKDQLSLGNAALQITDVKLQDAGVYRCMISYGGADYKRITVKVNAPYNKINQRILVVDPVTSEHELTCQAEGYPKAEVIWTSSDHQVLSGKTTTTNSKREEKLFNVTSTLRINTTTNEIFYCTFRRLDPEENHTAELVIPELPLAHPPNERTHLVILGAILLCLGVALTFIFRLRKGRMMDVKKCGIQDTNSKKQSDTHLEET
Assay: Inhibition of PD-1/PD-L1 (unknown origin) interaction incubated for 15 mins by HTRF assay
Mark 1 (yes) for IC50 under 20 nM, 0 (no) if at or over.

Worked examples follow.
# CHEMICAL_STRING, ASSIGNED_CATEGORY
measured = [
    ("Cc1c(C(=O)Oc2ccc(CN[C@@H](CO)C(=O)O)cc2)cccc1-c1ccccc1", "1 (yes)"),
    ("COc1cc(OC(=O)c2cccc(-c3ccccc3)c2C)ccc1CNC(CO)(CO)CO", "0 (no)"),
    ("Cc1cc(OC(=O)c2cccc(-c3ccccc3)c2C)cc(OCc2cccc(C#N)c2)c1CNC(CO)(CO)CO", "0 (no)"),
    ("COc1cc(OC(=O)c2cccc(-c3ccccc3)c2C)ccc1CNCCCO", "0 (no)"),
    ("Cc1cc(OC(=O)c2cccc(-c3ccccc3)c2C)cc(OCc2cccc(C#N)c2)c1CN[C@@H](CO)C(=O)O", "0 (no)"),
]

**Query** Please state whether IC50 is below 20 nM for `Cc1c(C(=O)Oc2ccc(CNC(CO)(CO)CO)c(OCc3cccc(C#N)c3)c2C)cccc1-c1ccccc1`
**Result** 0 (no)

**Query** Please state whether IC50 is below 20 nM for `Cc1cc(OC(=O)c2cccc(-c3ccccc3)c2C)ccc1CN[C@@H](CO)C(=O)O`
**Result** 1 (yes)

**Query** Please state whether IC50 is below 20 nM for `Cc1c(C(=O)Oc2ccc(CN[C@H](CO)C(=O)O)c(OCc3cccc(C#N)c3)c2)cccc1-c1ccccc1`
**Result** 0 (no)

**Query** Please state whether IC50 is below 20 nM for `Cc1cc(OC(=O)c2cccc(-c3ccccc3)c2C)cc(OCc2cccc(C#N)c2)c1CN[C@H](CO)C(=O)O`
**Result** 0 (no)

**Query** Please state whether IC50 is below 20 nM for `Cc1c(C(=O)Oc2cc(OCc3cccc(C#N)c3)c(CNC(CO)CO)cc2Cl)cccc1-c1ccccc1`
**Result** 0 (no)

**Query** Please state whether IC50 is below 20 nM for `COc1cc(OC(=O)c2cccc(-c3ccccc3)c2C)ccc1CN1CCCC[C@H]1C(=O)O`
**Result** 0 (no)

**Query** Please state whether IC50 is below 20 nM for `Cc1c(C(=O)Oc2ccc(CNC(CO)(CO)CO)c(Br)c2)cccc1-c1ccccc1`
**Result** 1 (yes)

**Query** Please state whether IC50 is below 20 nM for `Cc1c(C(=O)Oc2ccc(CN[C@@H](CO)C(=O)O)c(OCc3cccc(C#N)c3)c2)cccc1-c1ccccc1`
**Result** 0 (no)

**Query** Please state whether IC50 is below 20 nM for `COc1cc(OC(=O)c2cccc(-c3ccccc3)c2C)ccc1CNCCO`
**Result** 0 (no)

###

Biological target: Programmed cell death protein 1/Programmed cell death 1 ligand 1 (Homo sapiens)
Assay: Inhibition of PD-1/PD-L1 (unknown origin) interaction incubated for 15 mins by HTRF assay
Would you kindly list IC50 for each of these compounds?
One number for each entry, in µM.

# COMPOUND, PROPERTY_LABEL, READOUT_VALUE
records = [
    ("COc1cc(OC(=O)c2cccc(-c3ccccc3)c2C)cc(OC)c1CNCC(O)CO (centres undefined)", "IC50", 0.228),
]

// each listed compound needs a value for IC50
1. COc1cc(OC(=O)c2cccc(-c3ccccc3)c2C)ccc1CN1C[C@H](O)C[C@H]1C(=O)O
2. Cc1cc(OC(=O)c2cccc(-c3ccccc3)c2C)cc(OCc2cccc(C#N)c2)c1CNC[C@H](O)CO
3. Cc1c(C(=O)Oc2ccc(CNC(CO)(CO)CO)cc2)cccc1-c1ccccc1

**Result**
1. 0.113
2. 0.254
3. 0.0256
